- Test system: Leishmania infantum
- PROTOCOL_NOTES: Antileishmanial activity against Leishmania infantum promastigotes BCN150
- Format: functional, organism-based
Consider the following compounds and their measured IC50 readings.
PROPERTY: IC50 (µM)

structure=COc1cc2c3c(n(CCCN4CCOCC4)c(=O)c2cc1OC)-c1cc2c(cc1C3=O)OCO2 unit_spec=µM readout_number=0.1
structure=NC[C@@H]1O[C@H](O[C@H]2[C@@H](O)[C@H](O[C@@H]3[C@@H](O)[C@H](N)C[C@H](N)[C@H]3O[C@H]3O[C@H](CO)[C@@H](O)[C@H](O)[C@H]3N)O[C@@H]2CO)[C@H](N)[C@@H](O)[C@@H]1O unit_spec=µM readout_number=42.4
structure=CC[C@@]1(O)C(=O)OCc2c1cc1n(c2=O)Cc2cc3ccccc3nc2-1 unit_spec=µM readout_number=1.12
